Tested on: MEK6
Construct: gene MAP2K6
Conditions: concentration: 1 μM, replicates: in singlicate; n = 1;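 note: KINOMEscan kinase panel screen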
Assay metric: %Inh (%)
Express your answer in %, writing the number without its unit.

Consider the molecule shown here: COc1cc(Nc2nccc(N3CCC(NS(=O)(=O)c4ccc(NC(C)=O)cc4)CC3)n2)cc(OC)c1OC [GSK1379825] What is its recorded %Inh?
24

Likewise for Cc1cccc(Nc2nc(NCCN)ncc2C(N)=O)c1 [GSK1292139] ?
19

Also Cl.O=C(Nc1ccc(Oc2ccc3[nH]c(NC(=O)c4ccco4)nc3c2)cc1)Nc1cc(C(F)(F)F)ccc1F [GW683134] , if possible.
0

Then Cc1ccc(-c2ccc3occ(-c4ccc(S(C)=O)cc4)c3c2)nn1 (centres unmarked) ?
0

Can you check Nc1ncc(-c2cn[nH]c2)c2scc(-c3ccc4c(c3)CCN4C(=O)Cc3ccccc3)c12 [GSK2593067] next?
0

Repeat with O=C1NC(=O)C(c2ccccc2Cl)=C1Nc1cccc(Cl)c1 [SB-342409]
0

Do the same for COc1cccc(CC(=O)N2CCc3cc(-c4cn(C)c5ncnc(N)c45)ccc32)c1 [GSK2608899] please
0

Proceed to Cc1cc(-c2ccnc(Nc3cccc(C#N)c3)n2)cc(C)c1O [GSK1440913]
35

###

Test system: BRAF
Conditions: concentration: 1 μM, replicates: in singlicate; n = 1
Where %Inh equals or exceeds 9%, the correct label is true (1); where it does not, the label is false (0).

Determine whether this compound has %Inh no lower than 9%: Fc1cc(Cl)ccc1Nc1ccnc2cc(-c3ccc(CN4CCOCC4)o3)ccc12 [GW560109]
true (1)

How about this compound: Fc1cc(Cl)ccc1Nc1ccnc2cc(-c3ccc(CN4CCSCC4)o3)ccc12 [GW560106]
false (0)

What do we get for O=C(Nc1c(F)cccc1F)c1cc(C(=O)c2ccccc2F)c[nH]1 [GSK1326180] ?
false (0)

Also Cc1ccc(NC(=O)c2ccc(Cl)c(Cl)c2)cc1-c1ccc(C(=O)Nc2ccncc2)cc1 [GSK1398460] ?
true (1)

Similarly, COc1ccc(C2=C(Nc3cccc(O)c3)C(=O)NC2=O)cc1 [SB-390766] ?
false (0)

Input Cc1ccc(NC(=O)c2cccc(N3CCCCC3)c2)cc1-c1ccc(C(=O)NCC2CC2)cc1 [GSK1917008]
true (1)

Request: CN(c1ccc2c(c1)nc(NCc1ccccc1)n2C)c1ccnc(Nc2ccc(CS(C)(=O)=O)cc2)n1.Cl [GW811603]
true (1)

Here is the next compound: Cc1cccc(Nc2nc(N[C@H]3CCCC[C@H]3N)ncc2C(N)=O)c1.Cl [GSK986310]
false (0)

O=C(Nc1n[nH]c2nc(-c3cccc(O)c3)ccc12)C1CC1 [SB-711805] ?
true (1)

Now consider Cc1ccc(-c2ccc3occ(-c4ccc(S(C)=O)cc4)c3c2)nn1 (stereo not drawn) and answer again.
false (0)

Okay, and `N#CC1(c2cccc(C(=O)Nc3cccc(Oc4ccc5nc(NC(=O)C6CC6)sc5n4)c3)c2)CC1` ?
true (1)

Try this compound too: COc1cc(Nc2nccc(N3CCC(NC(=O)Nc4ccc5c(c4)OCO5)C3)n2)cc(OC)c1OC (stereo not drawn) [GSK1379766]
true (1)

Also, CSc1ccc(NC2=C(c3ccc(Cl)cc3)C(=O)NC2=O)cc1 [SB-317658] please.
false (0)

Then Cl.N#CCc1ccc(Nc2nccc(Nc3ccc(Oc4ccccc4)cc3)n2)cc1 [GW639905] ?
false (0)

How about Cc1cccc(Nc2nc(NCCN)ncc2C(N)=O)c1 [GSK1292139] ?
false (0)

Again, but for O=C(O)C(F)(F)F.O=c1[nH]ccc2nc(N[C@@H]3CCNC3)nc(Nc3ccc4c(c3)S(=O)(=O)CC4)c12 [GSK2181306]
false (0)
